# Test system: pigweed (Amaranthus retroflexus)
# assay-protocol: Test A preemergence
# Type: in vivo
# applied-conditions: 31 g ai/ha, 0 to 100 scale (0 no effect, 100 complete control)
observation-type: Pigweed plant response rating
Answers are plain numbers.

Some compounds with recorded Pigweed plant response rating:
compound	observed-measurement
Fc1ccc(F)c(Oc2ncc(C(F)(F)F)cn2)c1Oc1ncc(Cl)cn1 [Compound 25]	90
N#Cc1cccc(Oc2ncc(C(F)(F)F)cn2)c1Oc1ncc(C(F)(F)F)cn1 [Compound 35]	100
N#Cc1cccc(Oc2ncc(Cl)cn2)c1Oc1ccc(C(F)(F)F)cn1 [Compound 14]	40

Now consider the entry below.
# input Fill in reported Pigweed plant response rating for this entry: Fc1ccc(Oc2ccc(C(F)(F)F)cn2)c(Oc2ncc(Cl)cn2)c1 [Compound 45]
# output 0

###

# System: giant foxtail (Setaria faberii)
# assay-protocol: Test A postemergence
# Format: in vivo
# applied-conditions: Setaria faberi, post-emergence, 240 h, 31 g ai/ha, 0 to 100 scale, read-out: Plant response rating, Foxtail, Giant
Please respond with reported pest or weed control at 31 g/ha for every item in the list.
Answers are plain numbers, in %.

Some compounds with recorded pest or weed control at 31 g/ha:
N#Cc1cccc(Oc2ncc(Cl)cn2)c1Oc1ccccc1Cl 0
N#Cc1cccc(Oc2ncc(Cl)cn2)c1Oc1cccc(Cl)c1 0
N#Cc1cccc(Oc2ncc(Cl)cn2)c1Oc1cccnc1 0
N#Cc1cccc(Oc2ncc(Br)cn2)c1Oc1cccnc1 0
N#Cc1cccc(Oc2ncc(Cl)cn2)c1Oc1cnc(Cl)cn1 50

# input Fill in reported pest or weed control at 31 g/ha for this entry: Fc1ccc(F)c(Oc2ncc(Cl)cn2)c1Oc1ncc(Cl)cn1
# output 30

###

# Test system: galium (catchweed bedstraw, Galium aparine)
# assay-protocol: Test C postemergence
# Assay type: in vivo
# applied-conditions: Galium, post-emergence, 336 h; Postemergence, 62 g ai/ha, scale 0 to 100; read-out: Plant response rating, Galium
Please respond with reported pest or weed control at 62 g/ha for every item in the list.
One number for each entry, in %.

Some molecules with recorded pest or weed control at 62 g/ha:
Fc1cnc(Oc2c(Cl)cccc2Oc2ncc(Cl)cn2)nc1 90
N#Cc1cccc(Oc2ncc(Cl)cn2)c1Oc1cnc(Cl)cn1 95
Fc1cccc(Oc2ncc(Cl)cn2)c1Oc1ncc(C(F)(F)F)cn1 85

Parameters: items (list). Returns: pest or weed control at 62 g/ha for each item.
1. Fc1cccc(Oc2ncc(C(F)(F)F)cn2)c1Oc1ncc(Cl)cn1
2. Fc1cnc(Oc2c(Br)cccc2Oc2ncc(Cl)cn2)nc1
3. N#Cc1cccc(Oc2ncc(C(F)(F)F)cn2)c1Oc1ncc(Cl)cn1
4. Fc1cccc(Oc2ncc(Cl)cn2)c1Oc1ncc(Br)cn1
5. Clc1cnc(Oc2cccc(Cl)c2Oc2ncc(Br)cn2)nc1

# output
100
90
80
90
80

###

# Tested on: pigweed (Amaranthus retroflexus)
# assay-protocol: Test C preemergence
# Format: in vivo
# applied-conditions: Amaranthus retroflexus, pre-emergence, 336 h; 31 g ai/ha, preemergence; scale 0 to 100; read-out: Plant response rating, Pigweed
Please respond with reported pest or weed control at 31 g/ha for every item in the list.
Give bare numbers, in %.

N#Cc1cccc(Oc2ncc(Cl)cn2)c1Oc1cnc(Cl)cn1 100
Fc1cccc(Oc2ncc(Cl)cn2)c1Oc1ncc(C(F)(F)F)cn1 100
N#Cc1cccc(Oc2ncc(Cl)cn2)c1Oc1ncc(Br)cn1 100
Fc1ccc(F)c(Oc2ncc(Cl)cn2)c1Oc1ncc(Cl)cn1 100
Fc1cnc(Oc2c(F)cccc2Oc2ncc(Cl)cn2)nc1 100

# input Fill in reported pest or weed control at 31 g/ha for this entry: N#Cc1cccc(Oc2ncc(C(F)(F)F)cn2)c1Oc1ncc(Cl)cn1
# output 98

###

# Test system: Italian ryegrass (Lolium multiflorum)
# assay-protocol: Test C preemergence
# Assay type: in vivo
# applied-conditions: Lolium multiflorum, pre-emergence, 336 h; 125 g ai/ha, preemergence; scale 0 to 100; read-out: Plant response rating, Ryegrass, Italian
Please respond with reported pest or weed control at 125 g/ha for every item in the list.
One number for each entry, in %.

Some molecules with recorded pest or weed control at 125 g/ha:
molecule	pest or weed control at 125 g/ha, %
N#Cc1cccc(Oc2ncc(Cl)cn2)c1Oc1ncc(Br)cn1 [Compound 4]	70
N#Cc1cccc(Oc2ncc(C(F)(F)F)cn2)c1Oc1ncc(Cl)cn1 [Compound 39]	90
Fc1ccc(F)c(Oc2ncc(Cl)cn2)c1Oc1ncc(Cl)cn1 [Compound 34]	35

# input Fill in reported pest or weed control at 125 g/ha for this entry: Fc1cnc(Oc2c(F)cccc2Oc2ncc(Cl)cn2)nc1 [Compound 23]
# output 85

###

Please respond with reported plant injury at 16 g/ha for every item in the list.
# Test system: oilseed rape (Brassica napus)
# assay-protocol: Test C preemergence
# Type: in vivo
# applied-conditions: Brassica napus, pre-emergence; Preemergence, 16 g ai/ha; scale 0 to 100; read-out: Plant response rating, Oilseed Rape
One number for each entry, in %.

Fc1cccc(Oc2ncc(Cl)cn2)c1Oc1ncc(C(F)(F)F)cn1 95
N#Cc1cccc(Oc2ncc(C(F)(F)F)cn2)c1Oc1ncc(Cl)cn1 80

Parameters: items (list). Returns: plant injury at 16 g/ha for each item.
1. Clc1cnc(Oc2cccc(Br)c2Oc2ncc(Cl)cn2)nc1
2. N#Cc1cccc(Oc2ncc(Cl)cn2)c1Oc1ncc(Br)cn1

# output
1. 30
2. 15

###

# System: morningglory (Ipomoea coccinea)
# assay-protocol: Test C postemergence
# Assay type: in vivo
# applied-conditions: Ipomoea, post-emergence, 336 h; Postemergence, 31 g ai/ha, scale 0 to 100; read-out: Plant response rating, Morningglory
observation-type: pest or weed control at 31 g/ha (%)
Numbers only, in %.

Some compounds with recorded pest or weed control at 31 g/ha:
N#Cc1cccc(Oc2ncc(Cl)cn2)c1Oc1ccc(Cl)cn1 90
N#Cc1cccc(Oc2ncc(Cl)cn2)c1Oc1ccc(Cl)cc1 60

Parameters: items (list). Returns: pest or weed control at 31 g/ha for each item.
1. Fc1ccc(F)c(Oc2ncc(Cl)cn2)c1Oc1ncc(Cl)cn1
2. Fc1cnc(Oc2c(Br)cccc2Oc2ncc(Cl)cn2)nc1
3. N#Cc1cccc(Oc2ncc(Cl)cn2)c1Oc1cnc(Cl)cn1
4. N#Cc1cccc(Oc2ncc(Cl)cn2)c1Oc1ncc(Cl)cn1
5. Clc1cnc(Oc2cccc(Cl)c2Oc2ncc(Br)cn2)nc1

# output
95
80
90
85
90

# input Fill in reported pest or weed control at 31 g/ha for this entry: Fc1cccc(Oc2ncc(Cl)cn2)c1Oc1ncc(C(F)(F)F)cn1
# output 85

###

# Tested on: yellow nutsedge (Cyperus esculentus)
# assay-protocol: Test C postemergence
# Format: in vivo
# applied-conditions: Cyperus, post-emergence, 336 h; Postemergence, 31 g ai/ha, scale 0 to 100; read-out: Plant response rating, Nutsedge, Yellow
Please respond with reported pest or weed control at 31 g/ha for every item in the list.
Your answer should be a number followed by the unit of measure.

Parameters: items (list). Returns: pest or weed control at 31 g/ha for each item.
1. N#Cc1cccc(Oc2ncc(Cl)cn2)c1Oc1ncc(C(F)(F)F)cn1
2. Fc1cccc(Oc2ncc(Cl)cn2)c1Oc1ccc(Cl)nc1
3. N#Cc1cccc(Oc2ncc(Cl)cn2)c1Oc1cnc(Cl)cn1
4. Fc1cccc(Oc2ncc(C(F)(F)F)cn2)c1Oc1ncc(Cl)cn1

# output
1. 0%
2. 0%
3. 20%
4. 0%

Parameters: items (list). Returns: pest or weed control at 31 g/ha for each item.
1. N#Cc1cccc(Oc2ncc(C(F)(F)F)cn2)c1Oc1ncc(Cl)cn1
2. Fc1cnc(Oc2c(F)cccc2Oc2ncc(Cl)cn2)nc1

# output
1: 5%; 2: 0%

###

# Tested on: barnyardgrass (Echinochloa crus-galli)
# assay-protocol: Test A postemergence
# Assay type: in vivo
# applied-conditions: Echinochloa crus-galli, post-emergence, 240 h, 500 g ai/ha, 0 to 100 scale, read-out: Plant response rating, Barnyardgrass
observation-type: pest or weed control at 500 g/ha (%)
Give bare numbers, in %.

Some molecules with recorded pest or weed control at 500 g/ha:
molecule	observation-type	observed-measurement
N#Cc1cccc(Oc2ncc(Br)cn2)c1Oc1ccc(Cl)cn1 [Compound 11]	pest or weed control at 500 g/ha	100
Fc1cccc(Oc2ncc(Cl)cn2)c1Oc1ncc(Cl)cn1 [Compound 21]	pest or weed control at 500 g/ha	90
N#Cc1cccc(Oc2ncc(Cl)cn2)c1Oc1ncc(Br)cn1 [Compound 4]	pest or weed control at 500 g/ha	100
N#Cc1cccc(Oc2ncc(Br)cn2)c1Oc1ncc(Br)cn1 [Compound 1]	pest or weed control at 500 g/ha	90
FC(F)c1cccc(Oc2ncc(Cl)cn2)c1Oc1ncc(Cl)cn1 [Compound 46]	pest or weed control at 500 g/ha	100

# input Fill in reported pest or weed control at 500 g/ha for this entry: Clc1cnc(Oc2cccc(Br)c2Oc2ncc(Cl)cn2)nc1 [Compound 19]
# output 100

These entries and their values trace back to patent US20170190671A1.
